Biological target: T1, 4H687-bN
T1 chain: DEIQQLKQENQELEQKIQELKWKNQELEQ
Test: two-hybrid library CCNG1;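 further: natural log of median RNA to DNA barcode read ratio; higher means stronger binding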

- binder: "DENQQLEQKIQELKQENQELKWEIQELEQ [4H1369-bN]"
  interaction score: -1.7
- binder: "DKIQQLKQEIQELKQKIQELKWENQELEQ [4H2667-bN]"
  interaction score: -1.55
- binder: "DEIQQLKQEIQELEQKNQELEWKNQELKQ [4H568-bN]"
  interaction score: 0.312
- binder: "DKNQQLEQEIQELKQKNQELEWKIQELEQ [4H3189-bN]"
  interaction score: -0.938

Source of measurements: paper PMC10397247
